Reference source for all entries: PubChem BioAssay (NCI)

System: COLO 205 colon
Assay: NCI-60 one-dose screen, 48 h (100 = growth as untreated, 0 = no growth, -100 = all killed)
Conditions: 10 µM unless noted
About 83,000 compounds went through this panel and 20% of them were active in at least one assay; those are over-represented in the sample as a whole.
Catalogue of growth values
READOUT LABEL: growth (%)

COMPOUND	MEASURED ON	MEASURED NUMBER
CN(C)C/C=C/C(=O)Nc1cc2c(Nc3ccc(F)c(Cl)c3)ncnc2cc1O[C@H]1CCOC1	COLO 205 colon	-65.1
Cn1c(=O)c(F)c(Nc2ccc(I)cc2F)c2c(=O)n(C[C@@H](O)CO)cnc21	COLO 205 colon	2.24
C[C@@H](Oc1cc(C(=O)Nc2ccc(C(=O)N3CCN(C)CC3)cc2)nnc1N)c1c(Cl)ccc(F)c1Cl	COLO 205 colon	55.1
CNC(=O)c1cc(Oc2cccc3nc(Nc4ccc(Cl)c(F)c4)ccc23)ccn1	COLO 205 colon	84.3
Cc1cc(N2CCOCC2)nc(N(CCNc2ccnc3cc(Cl)ccc23)Cc2cccs2)n1	COLO 205 colon	-69.2

----------
System: NCI-H322M lung
Test: NCI-60 one-dose screen, 48 h
Conditions: 10 µM unless noted
This is part of a sample that, as a whole, favours compounds with a hit. Of some 83,000 tested, about 20% had one in any assay. Calls of active or inactive are those of the source. The calls were made as follows: active = growth percent below 10; inactive = the rest.
Outcomes: 1.0 = active, 0.0 = inactive

MOLECULE	DISCRETE LABEL
COc1cc(N2CCC(N3CCN(C)CC3)CC2)ccc1Nc1ncnc(Nc2ccccc2S(=O)(=O)C(C)C)n1	0.0
Clc1ccc2c(NCCNc3nc(N4CCCC4)nc4ccccc34)ccnc2c1	1.0
CCc1nc(C(N)=O)c(Nc2ccc(N3CCC(N4CCN(C)CC4)CC3)c(OC)c2)nc1NC1CCOCC1	0.0
Clc1ccc2c(NCCCNCc3ccc4c(c3)OCO4)ccnc2c1	0.0
CC(N)C(Cc1ccccc1)c1ccc(Cl)cc1 (stereo unspecified)	0.0
COC(=O)c1ccc2c(C(=Nc3ccc(N(C)C(=O)CN4CCN(C)CC4)cc3)c3ccccc3)c(O)[nH]c2c1	0.0
COc1cc(NCCN(CC(C)C)CC(C)C)c2ncc(C)cc2c1	0.0
COC(=O)[C@@H](NC(=O)[C@@H](OC)[C@@H]1Cc2cc3cc(OC4CC(OC5CC(O)C(O)C(C)O5)C(O)C(C)O4)c(C)c(O)c3c(O)c2C(=O)[C@H]1OC1CC(OC2CC(OC3CC(C)(O)C(O)C(C)O3)C(O)C(C)O2)C(O)C(C)O1)C(C)C (stereo partly specified)	0.0
Cc1cc(Nc2nc(N[C@@H](C)c3ncc(F)cn3)ncc2Cl)n[nH]1	0.0
CCOC(=O)C1=C(C)NC(=O)NC1c1cc(=O)oc2ccc(C)cc12 (stereo unspecified)	0.0
Cc1nc2ccc(-n3ncc(C(=O)c4cc5ccccc5[nH]4)c3N)cc2[nH]1	0.0
CCN(CC)CCCC(C)Nc1cc(-c2ccc(C(F)(F)F)cc2)c(C#N)c2nc3ccccc3n12 (stereo unspecified)	0.0
O=C(/C=C/c1ccc2c(c1)OCO2)c1c(O)c2ccccc2oc1=O	0.0
Nc1nc(Nc2ccccc2)c(C=Nc2ccccc2)c(=O)[nH]1	0.0
N#CC(C#N)=NO	0.0
CN1C/C=C\CCOc2cccc(c2)-c2ccnc(n2)Nc2cccc(c2)C1	1.0
Cc1sc2c(c1C)c(=O)nc1c(-c3nc(-c4ccccc4)cs3)n[nH]n12	0.0
COCCOc1cnc2ccn([C@H](C)c3nnc4c(F)cc(-c5cnn(C)c5)cn34)c(=O)c2c1	0.0
COc1cc(C(=O)NNC(=O)c2ccc(NC(=O)CCl)cc2)cc(OC)c1OC	0.0
O=C(NOC[C@H](O)CO)c1ccc(F)c(F)c1Nc1ccc(I)cc1F	0.0
[2H]C1([2H])[C@H](C)O[C@H](C)C([2H])([2H])N1c1ccc(NC(=O)c2cccc(-c3ccc(OC(F)(F)F)cc3)c2C)cn1	0.0

----------
System: A549/ATCC NSCLC
Experiment: NCI-60 one-dose screen, 48 h (100 = growth as untreated, 0 = no growth, -100 = all killed)
Conditions: 10 µM unless noted
This is part of a sample that, as a whole, favours compounds with a hit. Of some 83,000 tested, about 20% had one in any assay.
Kindly note that classification relies on growth with these boundaries: Low: < 10%; Medium: ≥ 10% and < 40%; High: ≥ 40%

MOLECULE	DISCRETE LABEL
Cn1cc(-c2ncnc3ccc(-c4cnc(Cl)c(NS(C)(=O)=O)c4)cc23)c2ccccc21	Low
O=C(Nc1cn[nH]c1-c1nc2ccc(CN3CCOCC3)cc2[nH]1)NC1CC1	High
CC(=O)OC(C(=O)c1ccccc1)c1ccccc1 (stereo not drawn)	High
COc1ccc(S(=O)(=O)N(C(C)=O)c2ccccc2/C=C/c2cc[n+]([O-])cc2)cc1	Medium
O=C1OCC2=C1C(c1cccc(F)c1)c1cc3c(cc1N2CCO)OCCO3 (stereo not drawn)	Medium
O=C(c1ccc(F)c(F)c1Nc1ccc(I)cc1F)N1CC(O)([C@@H]2CCCCN2)C1	Medium
CO[C@H]1C[C@@H]2CC[C@@H](C)[C@@](O)(O2)C(=O)C(=O)N2CCCC[C@H]2C(=O)O[C@H]([C@H](C)C[C@@H]2CC[C@@H](OP(C)(C)=O)[C@H](OC)C2)CC(=O)[C@H](C)/C=C(\C)[C@@H](O)[C@@H](OC)C(=O)[C@H](C)C[C@H](C)\C=C/C=C/C=C/1C	Medium
COC(=O)CCCNc1c(-c2c(O)c(O)cc3c(O)c(-c4c(C)cc5c(-c6nc7ccccn7c6NCCCC(=O)OC)c(O)c(O)cc5c4O)c(C)cc23)nc2ccccn12	Medium
N#CC1(C#N)C(c2cccs2)NC(c2cccs2)C1(C#N)C#N (stereo not drawn)	High
CNS(=O)(=O)Nc1nccc(Cc2c(C)c3ccc(Oc4ncccn4)cc3oc2=O)c1F	Medium
COc1cc2c(cc1OCCCCN1CCN(CC(=O)Nc3ccc(Cl)cc3C(=O)c3ccccc3Cl)CC1)N=CC1CCCN1C2=O (stereo not drawn)	Low
CNC(=O)CN1CCC(Oc2cc3c(Nc4cccc(Cl)c4F)ncnc3cc2OC)CC1	Medium
COc1ccc2c(c1OC)C(=O)O[C@@H]2[C@H]1c2c(c(C#CC#Cc3ccc(F)c(F)c3)c3c(c2OC)OCO3)CCN1C	High
COc1cc(OC)c(/C=C/S(=O)(=O)Cc2ccc(OC)c(NCC(=O)O)c2)c(OC)c1	Low
CC[C@H](CO)Nc1nc(NCc2ccccc2)c2ncn(C(C)C)c2n1	High
Cc1c(CN2CCN(C(=O)[C@H](C)O)CC2)sc2c(N3CCOCC3)nc(-c3cnc(N)nc3)nc12	Low
CCCCCCCCCCCC[n+]1ccccc1	Low
Cc1cc(C(=O)NOCCO)c(Nc2ccc(I)cc2F)n(C)c1=O	Medium

----------
System: UO-31 renal
Experiment: NCI-60 one-dose screen, 48 h (100 = growth as untreated, 0 = no growth, -100 = all killed)
Settings: 10 µM unless noted
About 83,000 compounds went through this panel and 20% of them were active in at least one assay; those are over-represented in the sample as a whole.
Below: a set of entries, each annotated with reported growth.

COMPOUND	UOM	growth
CC(C)[C@@H]1CC[C@]2(CO2)[C@@H]2C(=O)OCC(C(=O)O)=C[C@H]21	%	5.96
COC(=O)[C@H](Cc1ccc(O)cc1)NC(=O)[C@@H](OC)[C@@H]1Cc2cc3cc(OC4CC(OC5CC(O)C(O)C(C)O5)C(O)C(C)O4)c(C)c(O)c3c(O)c2C(=O)[C@H]1OC1CC(OC2CC(OC3CC(C)(O)C(O)C(C)O3)C(O)C(C)O2)C(O)C(C)O1 (some centres not stated)	%	18.1
CC(C)n1c(NCCc2ccc(O)c(O)c2)nc2c1c(=O)n(C)c(=O)n2C	%	87.3
CNC(=O)c1cc(Oc2ccc(NC(=O)Nc3cc(C(C)(C)C)nn3-c3ccc4ncccc4c3)c(F)c2)ccn1	%	-21.4
COCCOc1cnc2ccn([C@H](C)c3nnc4c(F)cc(-c5cnn(C)c5)cn34)c(=O)c2c1	%	60
C=C1CC[C@@H]2[C@](C)(COC(C)=O)[C@H](OC(C)=O)CC[C@@]2(C)[C@@H]1C/C=C1/C(=O)OC[C@H]1OC(C)=O	%	62.8
COc1ccc(-c2ccc3c(N4CCOC[C@@H]4C)nc(N4CCOC[C@@H]4C)nc3n2)cc1CO	%	-13

----------
Tested on: M14 melanoma
Test: NCI-60 one-dose screen, 48 h
Conditions: 10 µM unless noted
Compounds without any hit were thinned out: in the full panel of roughly 83,000, 20% have a hit. The source made the active and inactive calls. Rule for the calls: active = growth percent below 10; inactive = the rest.
Possible outcomes: 1 = active, 0 = inactive

COMPOUND	DISCRETE LABEL
Cc1sc2c(c1C)c(=O)nc1c(-c3nc4ccccc4s3)n[nH]n12	0
CCCCN1C(=O)c2cccc3c(-c4ccc5c(c4)ncn5C4CCCCC4)ccc(c23)C1=O	0
C=CC[n+]1c(/C=C2\Sc3ccccc3N2C)sc(-c2ccccc2)c1-c1ccccc1	0
CN1CCN(CC(=O)Nc2ccc(-c3nc4ccccc4s3)cc2)CC1	0
COc1ccc(C2OC(c3cc(-c4cc5ccccc5o4)nn3-c3ccccc3)=NN2C(C)=O)cc1 (stereo not drawn)	0
CC(=O)CC1CCCC1c1ccc2ccccc2c1 (stereo not drawn)	0
COC(=O)[C@]12CC[C@@H](C)[C@H](C)[C@@H]1C1=CC[C@@H]3[C@@]4(C)C(C#N)=CC(C)=C4CC[C@@]3(C)[C@]1(C)CC2	0
CN(C)CCn1c(=O)c2c3cc4c(cc3n(CCN(C)C)c2c2ccc(Cl)cc21)OCO4	0
N#CC(C#N)=NO	0
CC(C)(C)c1ccc(Cn2cc(CSc3nc4ccccc4s3)nn2)cc1	0
O=C(Nc1cnn2ccc(N3CCC[C@@H]3c3cc(F)ccc3F)nc12)N1CC[C@H](O)C1	0
[2H]C1([2H])[C@H](C)O[C@H](C)C([2H])([2H])N1c1ccc(NC(=O)c2cccc(-c3ccc(OC(F)(F)F)cc3)c2C)cn1	0
Cc1cc2c(-c3nc4ccccn4c3Nc3cccc4ccccc34)c(O)c(O)cc2c(O)c1-c1c(C)cc2c(-c3nc4ccccn4c3Nc3cccc4ccccc34)c(O)c(O)cc2c1O	0
CCc1nc2cc(/C=C/C(=O)NO)ccc2c(=O)n1CCc1ccc(OC)cc1	0
COC(=O)[C@@H](C)CNS(=O)(=O)N(c1cc(C(F)(F)F)cc(C(F)(F)F)c1)C1CCN(Cc2ccc(F)cc2)CC1	0
CC12O[C@H](C[C@@H](OC(=O)CCC(=O)O)[C@H]1O)n1c3ccccc3c3c4c(c5c6ccccc6n2c5c31)C(=O)NC4=O	1
CCN(CC)Cc1cc(Nc2cc(C(F)(F)F)c(C#N)c3nc4ccccc4n23)ccc1O	0
CN1[C@@H]2CC[C@H]1/C(=C\c1ccccc1)C1=C2[C@@H](c2ccccc2)C(C#N)=C(N)O1	0
